Data credit: patent US10653651B2

tested on: human colorectal adenocarcinoma cell line LS180; assay: LS180 cell growth in zymosan-activated human serum (MTT cell viability); assay type: cell-based; details: LS180 cells, EMEM, 15% human serum, n=4, read-out: IC50, inhibition of LS180 cell growth induced by zymosan-activated human serum complement
Parameter: pIC50
Please report pIC50 as the negative decimal logarithm of the molar concentration, giving only the number.

human colorectal adenocarcinoma cell line LS180 pIC50 of O=C(O)C1=CC(=C(c2ccc(O)c(C(=O)O)c2)c2ccc(O)c(C(=O)O)c2)C=CC1=O [ATA, aurin tricarboxylic acid] is 5.32

###

test system: BxPC-3 cells; experiment: Lactic dehydrogenase release from BxPC-3 cells; format: cell-based, human; conditions: Homo sapiens, n=4, read-out: IC50, lactate dehydrogenase release from BxPC-3 cells
Parameter: IC50
In your response, put the unit directly after the numeric value.

Entry O=C(O)C1=CC(=C(c2ccc(O)c(C(=O)O)c2)c2ccc(O)c(C(=O)O)c2)C=CC1=O [ATA, aurin tricarboxylic acid] — recorded IC50 = 7.9 µM
